Assay: Plasma pharmacokinetics in biliary cancer patients (LC-MS/MS, non-compartmental)
Format: in vivo, human
Conditions: human, plasma, po, 200 mg, subject 1007; first dose 200 mg oral; read-out: Half-life (converted)
Description: Plasma samples were collected from all patients at Week 1 of Cycle 1 immediately prior to dose administration, and at 30 min, 1, 2, 3, 4, 6, 8, 24, 48, and 96 hours after dose administration. […] Plasma samples were also collected immediately prior to the oral intake of MK-2206 tablet(s) on days 8, 15 and 29 (i.e. Cycle 2, Day 1) so that trough pre-dose levels of MK-2206 could be determined in the following studies. […]
RECORDED_METRIC: half-life (h)
Answers are plain numbers, in h.

// query Tell us which half-life value is on record for NC1(c2ccc(-c3nc4ccn5c(=O)[nH]nc5c4cc3-c3ccccc3)cc2)CCC1 [MK-2206]
// result 50.2

====

experiment: Plasma pharmacokinetics in biliary cancer patients (LC-MS/MS, non-compartmental); type: in vivo, human; settings: human, plasma, po, 200 mg, subject 1007; first dose 200 mg oral; read-out: Vz/F
RECORDED_METRIC: Vd/F (L)
Numbers only, in L.

// query Tell us which Vd/F value is on record for NC1(c2ccc(-c3nc4ccn5c(=O)[nH]nc5c4cc3-c3ccccc3)cc2)CCC1
// result 2880

====

experiment: Plasma pharmacokinetics in biliary cancer patients (LC-MS/MS, non-compartmental); assay type: in vivo, human; conditions: human, plasma, oral, 200 mg, day 15; 200 mg weekly; read-out: trough pre-dose average plasma concentration
RECORDED_METRIC: concentration at 15 day (ng/mL)
Answers are plain numbers, in ng/mL.

// query Tell us which concentration at 15 day value is on record for NC1(c2ccc(-c3nc4ccn5c(=O)[nH]nc5c4cc3-c3ccccc3)cc2)CCC1
// result 14.4

====

test: Plasma pharmacokinetics in biliary cancer patients (LC-MS/MS, non-compartmental); assay type: in vivo, human; conditions: human, plasma, oral, 200 mg, OSU Trial, 7 subjects (subject 1004 excluded), first dose 200 mg; read-out: Half life (average) (converted)
RECORDED_METRIC: half-life (h)
One number for each entry, in h.

// query Tell us which half-life value is on record for NC1(c2ccc(-c3nc4ccn5c(=O)[nH]nc5c4cc3-c3ccccc3)cc2)CCC1
// result 63.5

====

test: Plasma pharmacokinetics in biliary cancer patients (LC-MS/MS, non-compartmental); format: in vivo, human; details: human, plasma, po, 200 mg, subject 1005; first dose 200 mg oral; read-out: AUC0–96
RECORDED_METRIC: AUC(0-t)
Could you kindly put the unit after your number?

// query Tell us which AUC(0-t) value is on record for NC1(c2ccc(-c3nc4ccn5c(=O)[nH]nc5c4cc3-c3ccccc3)cc2)CCC1
// result 6020 ng·h/mL

====

experiment: Plasma pharmacokinetics in biliary cancer patients (LC-MS/MS, non-compartmental); type: in vivo, human; settings: human, plasma, po, 200 mg, subject 1007; first dose 200 mg oral; read-out: λz (converted)
RECORDED_METRIC: k el

// query Tell us which k el value is on record for NC1(c2ccc(-c3nc4ccn5c(=O)[nH]nc5c4cc3-c3ccccc3)cc2)CCC1
// result 3.89e-06 s⁻¹

====

experiment: Plasma pharmacokinetics in biliary cancer patients (LC-MS/MS, non-compartmental); format: in vivo, human; settings: human, plasma, po, 200 mg, subject 2006; first dose 200 mg oral; read-out: Vz/F
RECORDED_METRIC: Vd/F (L)
One number for each entry, in L.

// query Tell us which Vd/F value is on record for NC1(c2ccc(-c3nc4ccn5c(=O)[nH]nc5c4cc3-c3ccccc3)cc2)CCC1 [MK-2206]
// result 1870

====

assay: Plasma pharmacokinetics in biliary cancer patients (LC-MS/MS, non-compartmental); type: in vivo, human; conditions: human, plasma, po, 200 mg, subject 1002; first dose 200 mg oral; read-out: Vz/F
RECORDED_METRIC: Vd/F (L)
Numbers only, in L.

// query Tell us which Vd/F value is on record for NC1(c2ccc(-c3nc4ccn5c(=O)[nH]nc5c4cc3-c3ccccc3)cc2)CCC1
// result 1870

====

assay: Plasma pharmacokinetics in biliary cancer patients (LC-MS/MS, non-compartmental); format: in vivo, human; conditions: human, plasma, po, 200 mg, subject 1003; first dose 200 mg oral; read-out: λz (converted)
RECORDED_METRIC: k el (s⁻¹)
Numbers only, in s⁻¹.

// query Tell us which k el value is on record for NC1(c2ccc(-c3nc4ccn5c(=O)[nH]nc5c4cc3-c3ccccc3)cc2)CCC1
// result 5.83e-06

====

assay: Plasma pharmacokinetics in biliary cancer patients (LC-MS/MS, non-compartmental); type: in vivo, human; conditions: human, plasma, po, 200 mg, subject 1002; first dose 200 mg oral
RECORDED_METRIC: Cmax (ng/mL)
Answers are plain numbers, in ng/mL.

// query Tell us which Cmax value is on record for NC1(c2ccc(-c3nc4ccn5c(=O)[nH]nc5c4cc3-c3ccccc3)cc2)CCC1 [MK-2206]
// result 111

====

experiment: Plasma pharmacokinetics in biliary cancer patients (LC-MS/MS, non-compartmental); type: in vivo, human; settings: human, plasma, po, 200 mg, subject 1004; first dose 200 mg oral; read-out: λz (converted)
RECORDED_METRIC: k el

// query Tell us which k el value is on record for NC1(c2ccc(-c3nc4ccn5c(=O)[nH]nc5c4cc3-c3ccccc3)cc2)CCC1 [MK-2206]
// result 3.06e-06 s⁻¹

====

experiment: Plasma pharmacokinetics in biliary cancer patients (LC-MS/MS, non-compartmental); type: in vivo, human; conditions: human, plasma, po, 200 mg, subject 1003; first dose 200 mg oral; read-out: AUC0–96
RECORDED_METRIC: AUC(0-t) (ng·h/mL)
Numbers only, in ng·h/mL.

// query Tell us which AUC(0-t) value is on record for NC1(c2ccc(-c3nc4ccn5c(=O)[nH]nc5c4cc3-c3ccccc3)cc2)CCC1
// result 8450

====

test: Plasma pharmacokinetics in biliary cancer patients (LC-MS/MS, non-compartmental); type: in vivo, human; conditions: human, plasma, po, 200 mg, subject 2008; first dose 200 mg oral; read-out: λz (converted)
RECORDED_METRIC: k el (s⁻¹)
One number for each entry, in s⁻¹.

// query Tell us which k el value is on record for NC1(c2ccc(-c3nc4ccn5c(=O)[nH]nc5c4cc3-c3ccccc3)cc2)CCC1
// result 2.22e-06

====

test: Plasma pharmacokinetics in biliary cancer patients (LC-MS/MS, non-compartmental); assay type: in vivo, human; conditions: human, plasma, po, 200 mg, subject 1002; first dose 200 mg oral; read-out: Tmax
RECORDED_METRIC: Tmax (h)
Numbers only, in h.

// query Tell us which Tmax value is on record for NC1(c2ccc(-c3nc4ccn5c(=O)[nH]nc5c4cc3-c3ccccc3)cc2)CCC1
// result 6

====

experiment: Plasma pharmacokinetics in biliary cancer patients (LC-MS/MS, non-compartmental); type: in vivo, human; settings: human, plasma, po, 200 mg, subject 1001; first dose 200 mg oral; read-out: Half-life (converted)
RECORDED_METRIC: half-life (h)
One number for each entry, in h.

// query Tell us which half-life value is on record for NC1(c2ccc(-c3nc4ccn5c(=O)[nH]nc5c4cc3-c3ccccc3)cc2)CCC1
// result 53.3

====

test: Plasma pharmacokinetics in biliary cancer patients (LC-MS/MS, non-compartmental); format: in vivo, human; conditions: human, plasma, po, 200 mg, subject 2008; first dose 200 mg oral; read-out: Half-life (converted)
RECORDED_METRIC: half-life (h)
Answers are plain numbers, in h.

// query Tell us which half-life value is on record for NC1(c2ccc(-c3nc4ccn5c(=O)[nH]nc5c4cc3-c3ccccc3)cc2)CCC1
// result 87.5

====

Experiment: Plasma pharmacokinetics in biliary cancer patients (LC-MS/MS, non-compartmental)
Type: in vivo, human
Conditions: human, plasma, po, 200 mg, eight patients, first dose 200 mg oral; read-out: terminal elimination half-life, range
Protocol: Plasma samples were collected from all patients at Week 1 of Cycle 1 immediately prior to dose administration, and at 30 min, 1, 2, 3, 4, 6, 8, 24, 48, and 96 hours after dose administration. […] Plasma samples were also collected immediately prior to the oral intake of MK-2206 tablet(s) on days 8, 15 and 29 (i.e. Cycle 2, Day 1) so that trough pre-dose levels of MK-2206 could be determined in the following studies. […]
RECORDED_METRIC: half-life

// query Tell us which half-life value is on record for NC1(c2ccc(-c3nc4ccn5c(=O)[nH]nc5c4cc3-c3ccccc3)cc2)CCC1
// result 34 to 88 h

Where these numbers come from: paper PMC4894406
